B1: KRT13 (parent)
chain: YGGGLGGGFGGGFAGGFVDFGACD

# Variants of: B1
# test-protocol: protein stability index of a GFP-peptide fusion (GPS, HEK-293T) (PSI 1-6); higher = more stable;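 note: lentivirally expressed fusions sorted by FACS into six bins by GFP to DsRed ratio, PSI derived from sequencing read proportions per bin multiplied by bin number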
# condition-summary: c terminus: a fixed tail appended
readout-type: protein stability index
Reply: number alone, nothing else.

mutation-annotation: V18S
protein stability index: 3.77
//
mutation-annotation: F20N
protein stability index: 2.31
//
mutation-annotation: G15D
protein stability index: 2.03

Attention now shifts to the item below.
QUERY: Tell me the measured protein stability index of "F17E" , please.
RESULT: 2.44
